Numbers sourced from patent US20210395344A1.

# MEASUREMENT TARGET: T1, Acro COVID S1 (S1N-C82E8) (SARS-CoV-2, UniProt P0DTC2 16-685)
# T1 construct: domain: S1
# ASSAY DETAILS: phage ELISA
For each entry below, report its ELISA fold over background value.
Report the figure in fold over background without appending any unit label.

Reported ELISA fold over background for 1-42 (antibody, V domains shown, also called variant 1-42) VH: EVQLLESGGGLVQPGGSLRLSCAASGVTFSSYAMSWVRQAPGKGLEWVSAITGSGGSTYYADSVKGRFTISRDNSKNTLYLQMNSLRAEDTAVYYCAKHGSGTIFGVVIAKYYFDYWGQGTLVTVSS VL: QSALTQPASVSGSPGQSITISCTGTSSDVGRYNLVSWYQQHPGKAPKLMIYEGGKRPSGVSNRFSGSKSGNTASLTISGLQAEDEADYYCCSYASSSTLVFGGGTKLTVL was 22.7

Reported ELISA fold over background for 1-32 (antibody, V domains shown, also called variant 1-32) VH: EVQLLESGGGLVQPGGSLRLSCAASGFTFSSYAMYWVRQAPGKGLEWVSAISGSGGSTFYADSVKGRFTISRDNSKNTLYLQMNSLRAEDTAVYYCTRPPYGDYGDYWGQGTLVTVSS VL: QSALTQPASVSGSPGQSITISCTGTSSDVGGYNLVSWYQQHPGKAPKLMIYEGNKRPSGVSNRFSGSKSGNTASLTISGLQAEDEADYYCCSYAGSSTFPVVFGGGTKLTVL was 11.5

Reported ELISA fold over background for 1-3 (antibody, V domains shown, also called variant 1-3) VH: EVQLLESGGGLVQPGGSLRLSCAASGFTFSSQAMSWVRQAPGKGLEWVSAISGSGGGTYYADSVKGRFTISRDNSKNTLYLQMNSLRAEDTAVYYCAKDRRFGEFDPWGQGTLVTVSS VL: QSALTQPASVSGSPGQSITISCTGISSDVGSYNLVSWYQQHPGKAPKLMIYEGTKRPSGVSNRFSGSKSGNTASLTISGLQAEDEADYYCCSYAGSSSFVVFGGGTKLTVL was 1.6

Reported ELISA fold over background for 1-27 (antibody, V domains shown, also called variant 1-27) VH: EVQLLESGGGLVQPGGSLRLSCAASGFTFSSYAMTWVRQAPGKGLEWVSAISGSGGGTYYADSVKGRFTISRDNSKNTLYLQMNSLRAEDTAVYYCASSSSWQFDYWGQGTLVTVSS VL: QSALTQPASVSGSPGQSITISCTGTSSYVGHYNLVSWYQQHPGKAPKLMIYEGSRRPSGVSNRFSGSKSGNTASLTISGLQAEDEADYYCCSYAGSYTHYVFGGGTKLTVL was 1.5

Reported ELISA fold over background for 1-30 (antibody, V domains shown, also called variant 1-30) VH: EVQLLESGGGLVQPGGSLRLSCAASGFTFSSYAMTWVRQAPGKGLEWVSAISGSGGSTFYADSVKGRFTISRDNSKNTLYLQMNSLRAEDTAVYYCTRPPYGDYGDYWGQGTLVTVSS VL: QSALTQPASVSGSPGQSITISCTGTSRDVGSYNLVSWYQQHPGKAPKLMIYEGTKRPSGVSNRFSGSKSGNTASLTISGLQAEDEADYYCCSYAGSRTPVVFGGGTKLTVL was 16.8
